- System: Neuronal acetylcholine receptor; alpha4/beta2 (Homo sapiens, UniProt P17787+P43681)
- Test: Activation of human alpha4beta2 nAChR assessed as potentiation of submaximal response to […] relative to maximal nicotine response
- Assay type: protein-complex assay
Catalogue of molecules with associated Efficacy

- Smi: "Clc1sccc1-c1cc(-c2cnn(C3CCNCC3)c2)on1"
  Measurement Unit: "%"
  Efficacy: 42
- Smi: "Fc1ccc(Cl)c(-c2cc(-c3cnn(C4CCNCC4)c3)on2)c1"
  Measurement Unit: "%"
  Efficacy: 29
- Smi: "c1nn(C2CCNCC2)cc1-c1cc(C2CCCCC2)no1"
  Measurement Unit: "%"
  Efficacy: 16
- Smi: "CCn1c(-c2cc(-c3c(F)cccc3Cl)no2)cnc1C1CCNCC1"
  Measurement Unit: "%"
  Efficacy: 87
- Smi: "Cc1c(-c2cc(-c3c(F)cccc3Cl)no2)cnn1C1CCNCC1"
  Measurement Unit: "%"
  Efficacy: 66
- Smi: "Cc1cc(-c2cnn(C3CCNCC3)c2)on1"
  Measurement Unit: "%"
  Efficacy: 19
- Smi: "CN(Cc1cc(-c2ccccc2Cl)no1)C(=O)C1CCNCC1"
  Measurement Unit: "%"
  Efficacy: 41
- Smi: "Fc1ccc(-c2cc(-c3cnn(C4CCNCC4)c3)on2)c(Cl)c1"
  Measurement Unit: "%"
  Efficacy: 56
- Smi: "Fc1cccc(Cl)c1-c1cc(-c2cnn(C3CCNCC3)c2)on1"
  Measurement Unit: "%"
  Efficacy: 60
- Smi: "Cn1c(-c2cc(-c3c(F)cccc3Cl)no2)cnc1C1(F)CCNCC1"
  Measurement Unit: "%"
  Efficacy: 68
- Smi: "Cn1c(-c2cc(-c3c(F)cccc3Cl)no2)cnc1C1CCNCC1"
  Measurement Unit: "%"
  Efficacy: 71
